Catalogue of pEC50 values
Target: Vasopressin V1b receptor (Homo sapiens)
Sequence (P47901 whole entry): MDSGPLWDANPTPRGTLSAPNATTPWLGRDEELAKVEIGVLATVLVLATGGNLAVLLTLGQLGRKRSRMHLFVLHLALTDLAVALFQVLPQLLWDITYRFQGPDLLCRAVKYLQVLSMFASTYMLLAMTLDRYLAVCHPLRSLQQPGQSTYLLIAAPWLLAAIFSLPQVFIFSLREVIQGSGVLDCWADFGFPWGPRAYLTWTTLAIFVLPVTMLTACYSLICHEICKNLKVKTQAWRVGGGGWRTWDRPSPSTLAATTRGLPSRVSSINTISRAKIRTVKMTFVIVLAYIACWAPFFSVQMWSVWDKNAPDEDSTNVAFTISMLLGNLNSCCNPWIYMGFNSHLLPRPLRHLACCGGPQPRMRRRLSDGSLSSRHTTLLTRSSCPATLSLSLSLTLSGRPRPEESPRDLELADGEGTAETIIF
Test: Agonist activity at recombinant human vasopressin V1b receptor expressed in Flp-In-293 cells by luciferase reporter gene assay
Format: functional, cell-based
Details: read-out: EC50
pEC50: −log10 of the molar value. Bridge positions count the residues as written; N and C are the ends. Square brackets hold non-standard residues; d marks the D form. Peptide text beside a SMILES is read from it. * marks the point of attachment. Ala(2-furyl) = N[C@@H](Cc1ccco1)C(=O)O; NH(3-hydroxypropyl) = OCCCN*; Orn = NCCC[C@H](N)C(=O)O; Dab = NCC[C@H](N)C(=O)O
EXPERIMENTAL ENDPOINT: pEC50

CC[C@H](C)[C@@H]1NC(=O)[C@H](Cc2ccco2)NC(=O)[C@@H](N)CSSC[C@@H](C(=O)N2CCC[C@H]2C(=O)N[C@@H](CCN)C(=O)NCC(N)=O)NC(=O)[C@H](CC(N)=O)NC(=O)[C@H](CCC(N)=O)NC1=O (H-C[Ala(2-furyl)]IQNCP[Dab]G-NH2; disulfide 1-6) ... 6.68
CC[C@H](C)[C@@H]1NC(=O)[C@H](Cc2ccccc2)NC(=O)[C@@H](N)CSSC[C@@H](C(=O)N2CCC[C@H]2C(=O)N[C@@H](CCCN)C(=O)NCC(N)=O)NC(=O)[C@H](CC(N)=O)NC(=O)[C@H](CC(=O)NCCCO)NC1=O (H-CFID(NH(3-hydroxypropyl))NCP[Orn]G-NH2; disulfide 1-6) ... 7.72
CC[C@H](C)[C@@H]1NC(=O)[C@H](Cc2ccco2)NC(=O)[C@@H](N)CSSC[C@@H](C(=O)N2CCC[C@H]2C(=O)N[C@@H](CCN)C(=O)NCC(N)=O)NC(=O)[C@H](CC(N)=O)NC(=O)[C@H](CC(N)=O)NC1=O (H-C[Ala(2-furyl)]INNCP[Dab]G-NH2; disulfide 1-6) ... 6.34

###

Catalogue of Ratio EC50 values
Species on record: Homo sapiens
Assay: Selectivity ratio of EC50 for human oxytocin receptor to EC50 for human vasopressin V1a receptor
Numbered stars: 1 amine (or outer) side, 2 acyl side, 3 side chain; on linkers, the order of the positions; unused ones are H or OH. Bridge positions count the residues as written; N and C are the ends. Square brackets hold non-standard residues; d marks the D form. Peptide text beside a SMILES is read from it. X5 = CC(C)CCNCCC[C@H](N[*:1])C(=O)[*:2]; Orn(iPr) = CC(C)NCCC[C@H](N)C(=O)O; 2Thi = N[C@@H](Cc1cccs1)C(=O)O; 3Thi = N[C@@H](Cc1ccsc1)C(=O)O; Aad = N[C@@H](CCCC(=O)O)C(=O)O; Orn = NCCC[C@H](N)C(=O)O; Dab = NCC[C@H](N)C(=O)O; Ac4c = NC1(C(=O)O)CCC1
EXPERIMENTAL ENDPOINT: Ratio EC50

CC[C@H](C)[C@@H]1NC(=O)[C@H](Cc2cccs2)NC(=O)[C@@H](N)CSSC[C@@H](C(=O)N2CCC[C@H]2C(=O)N[C@@H](CCCNC(C)C)C(=O)NCC(N)=O)NC(=O)[C@H](CC(N)=O)NC(=O)[C@H](CCC(N)=O)NC1=O (H-C[2Thi]IQNCP[Orn(iPr)]G-NH2; disulfide 1-6) ... 150
NCCC[C@H](NC(=O)[C@@H]1CCCN1C(=O)[C@@H]1CSSC[C@H](N)C(=O)N[C@@H](Cc2ccccc2)C(=O)N[C@@H](Cc2ccccc2)C(=O)N[C@@H](CCC(N)=O)C(=O)N[C@@H](CC(N)=O)C(=O)N1)C(=O)NCC(N)=O (H-CFFQNCP[Orn]G-NH2; disulfide 1-6) ... > 71000
CC[C@H](C)[C@@H]1NC(=O)[C@H](Cc2cnc[nH]2)NC(=O)[C@@H](N)CSSC[C@@H](C(=O)N2CCC[C@H]2C(=O)N[C@@H](CCN)C(=O)NCC(N)=O)NC(=O)[C@H](CC(N)=O)NC(=O)[C@H](CCC(N)=O)NC1=O (H-CHIQNCP[Dab]G-NH2; disulfide 1-6) ... > 19
CC[C@H](C)[C@@H]1NC(=O)[C@H](Cc2ccccc2)NC(=O)[C@@H](N)CSSC[C@@H](C(=O)N2CCC[C@H]2C(=O)N[C@@H](CCCNCCC(C)C)C(=O)NCC(N)=O)NC(=O)[C@H](CC(N)=O)NC(=O)[C@H](CCC(N)=O)NC1=O (H-CFIQNCP[X5]G-NH2; disulfide 1-6) ... 53
CC[C@H](C)[C@@H]1NC(=O)C2(CCC2)NC(=O)[C@@H](N)CSSC[C@@H](C(=O)N2CCC[C@H]2C(=O)N[C@@H](CCCN)C(=O)NCC(N)=O)NC(=O)[C@H](CC(N)=O)NC(=O)[C@H](CC(N)=O)NC1=O (H-C[Ac4c]INNCP[Orn]G-NH2; disulfide 1-6) ... > 1200
CC[C@H](C)[C@@H]1NC(=O)[C@H](Cc2ccccc2)NC(=O)[C@@H](N)CSSC[C@@H](C(=O)N2CCC[C@H]2C(=O)N[C@@H](CCCN)C(=O)NCC(N)=O)NC(=O)[C@H](CC(N)=O)NC(=O)[C@H](CCCC(N)=O)NC1=O (H-CFI[Aad](NH2)NCP[Orn]G-NH2; disulfide 1-6) ... > 11000
CC[C@H](C)[C@@H]1NC(=O)[C@H](Cc2ccsc2)NC(=O)[C@@H](N)CSSC[C@@H](C(=O)N2CCC[C@H]2C(=O)N[C@@H](CCCN)C(=O)NCC(N)=O)NC(=O)[C@H](CC(N)=O)NC(=O)[C@H](CC(N)=O)NC1=O (H-C[3Thi]INNCP[Orn]G-NH2; disulfide 1-6) ... > 1300

###

Biological target: Vasopressin V1a receptor (Homo sapiens, UniProt P37288)
Sequence (P37288 whole entry): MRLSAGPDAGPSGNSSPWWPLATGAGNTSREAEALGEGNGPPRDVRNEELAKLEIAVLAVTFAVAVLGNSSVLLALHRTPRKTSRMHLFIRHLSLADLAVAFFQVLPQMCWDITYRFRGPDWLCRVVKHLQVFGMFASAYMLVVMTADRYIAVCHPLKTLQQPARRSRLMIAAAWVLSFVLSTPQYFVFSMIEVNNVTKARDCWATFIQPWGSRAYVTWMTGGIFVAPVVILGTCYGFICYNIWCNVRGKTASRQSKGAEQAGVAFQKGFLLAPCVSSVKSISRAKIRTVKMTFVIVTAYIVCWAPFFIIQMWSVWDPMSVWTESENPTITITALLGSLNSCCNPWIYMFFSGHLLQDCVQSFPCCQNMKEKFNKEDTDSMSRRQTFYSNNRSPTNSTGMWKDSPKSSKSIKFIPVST
Experiment: Agonist activity at recombinant human vasopressin V1a receptor expressed in HEK293 cells by luciferase reporter gene assay
Type: functional, cell-based
Settings: read-out: EC50
Numbered stars: 1 amine (or outer) side, 2 acyl side, 3 side chain; on linkers, the order of the positions; unused ones are H or OH. Bridge positions count the residues as written; N and C are the ends. Square brackets hold non-standard residues; d marks the D form. Peptide text beside a SMILES is read from it. * marks the point of attachment. Orn(Me) = CN(CCC[C@H](N[*:1])C(=O)[*:2])[*:3]; Ala(2-furyl) = N[C@@H](Cc1ccco1)C(=O)O; 3Thi = N[C@@H](Cc1ccsc1)C(=O)O; Cha = N[C@@H](CC1CCCCC1)C(=O)O; NH(3-hydroxypropyl) = OCCCN*; Orn = NCCC[C@H](N)C(=O)O; Dab = NCC[C@H](N)C(=O)O; NHiBu = CC(C)CN*
EXPERIMENTAL ENDPOINT: EC50 (nM)

CC[C@H](C)[C@@H]1NC(=O)[C@H](Cc2ccc(O)cc2)NC(=O)[C@@H](N)CSSC[C@@H](C(=O)N2CCC[C@H]2C(=O)N[C@@H](CCCN)C(=O)NCC(N)=O)NC(=O)[C@H](CC(N)=O)NC(=O)[C@H](CCC(N)=O)NC1=O ... 0.23
CC[C@H](C)[C@@H]1NC(=O)[C@H](CC2CCCCC2)NC(=O)[C@@H](N)CSSC[C@@H](C(=O)N2CCC[C@H]2C(=O)N[C@@H](CCN)C(=O)NCC(N)=O)NC(=O)[C@H](CC(N)=O)NC(=O)[C@H](CCC(N)=O)NC1=O (H-C[Cha]IQNCP[Dab]G-NH2; disulfide 1-6) ... 0.25
CC[C@H](C)[C@@H]1NC(=O)[C@H](Cc2ccccc2)NC(=O)[C@@H](N)CSSC[C@@H](C(=O)N2CCC[C@H]2C(=O)N[C@@H](CCCNC)C(=O)NCC(N)=O)NC(=O)[C@H](CC(N)=O)NC(=O)[C@H](CC(N)=O)NC1=O (H-CFINNCP[Orn(Me)]G-NH2; disulfide 1-6) ... 2.4
CC[C@H](C)[C@@H]1NC(=O)[C@H](Cc2ccccc2)NC(=O)[C@@H](N)CSSC[C@@H](C(=O)N2CCC[C@H]2C(=O)N[C@@H](CCCN)C(=O)NCC(N)=O)NC(=O)[C@H](CC(N)=O)NC(=O)[C@H](CCC(=O)NCC(C)C)NC1=O (H-CFIE(NHiBu)NCP[Orn]G-NH2; disulfide 1-6) ... 21
CC[C@H](C)[C@@H]1NC(=O)[C@H](Cc2ccsc2)NC(=O)[C@@H](N)CSSC[C@@H](C(=O)N2CCC[C@H]2C(=O)N[C@@H](CCCN)C(=O)NCC(N)=O)NC(=O)[C@H](CC(N)=O)NC(=O)[C@H](CC(N)=O)NC1=O (H-C[3Thi]INNCP[Orn]G-NH2; disulfide 1-6) ... 7.3
CC[C@H](C)[C@@H]1NC(=O)[C@H](Cc2ccccc2)NC(=O)[C@@H](N)CSSC[C@@H](C(=O)N2CCC[C@H]2C(=O)N[C@@H](CCCN)C(=O)NCC(N)=O)NC(=O)[C@H](CC(N)=O)NC(=O)[C@H](CC(=O)NCCCO)NC1=O (H-CFID(NH(3-hydroxypropyl))NCP[Orn]G-NH2; disulfide 1-6) ... 2.1
CC[C@H](C)[C@@H]1NC(=O)[C@H](Cc2ccco2)NC(=O)[C@@H](N)CSSC[C@@H](C(=O)N2CCC[C@H]2C(=O)N[C@@H](CCN)C(=O)NCC(N)=O)NC(=O)[C@H](CC(N)=O)NC(=O)[C@H](CCC(N)=O)NC1=O (H-C[Ala(2-furyl)]IQNCP[Dab]G-NH2; disulfide 1-6) ... 2.2
